Known log10(Ki) of a selection of compounds
- study.system: 5-hydroxytryptamine receptor 2A (Rattus norvegicus, UniProt P14842)
- Sequence (P14842 whole entry): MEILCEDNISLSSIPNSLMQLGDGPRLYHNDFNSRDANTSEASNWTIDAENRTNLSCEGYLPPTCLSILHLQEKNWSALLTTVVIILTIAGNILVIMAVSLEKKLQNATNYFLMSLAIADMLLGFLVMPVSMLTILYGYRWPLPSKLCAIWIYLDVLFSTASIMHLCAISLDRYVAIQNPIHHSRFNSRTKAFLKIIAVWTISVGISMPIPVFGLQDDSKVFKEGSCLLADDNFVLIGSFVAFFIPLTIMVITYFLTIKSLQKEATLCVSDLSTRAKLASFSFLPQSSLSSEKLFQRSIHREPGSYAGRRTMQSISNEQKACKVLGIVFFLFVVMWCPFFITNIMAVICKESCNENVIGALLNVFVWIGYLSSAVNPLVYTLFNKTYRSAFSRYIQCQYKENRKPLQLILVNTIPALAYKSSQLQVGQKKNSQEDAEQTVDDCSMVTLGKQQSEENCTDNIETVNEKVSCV
All values: log10 Ki [nM].

compound=CN(C)CCN(Cc1ccccc1)S(=O)(=O)c1ccc(I)cc1 quantity_measured=log10(Ki) reported_result=0.48
compound="Cc1cc2c(cc1Cl)N(C(=O)Nc1ccc(Oc3cccnc3C)nc1)CC2 [SB-242084]" quantity_measured=log10(Ki) reported_result=2.44

Input: State the recorded log10(Ki) for this entry: COc1ccc(NC(=O)Nc2ccc(OC(CCN(C)C)c3ccccc3)cc2)cc1Cl (stereo not given)
Output: 2.37

Input: Reported log10(Ki), compound `CN(C)CCN(Cc1ccccc1)S(=O)(=O)c1ccc(NC(=O)Nc2ccc3c(ccn3C)c2)cc1` : ____
Output: 1.77

Input: What does the data say about its log10(Ki)? Entry: `CN(C)CCN(Cc1ccccc1)S(=O)(=O)c1ccc(N2CCN(c3cccc(Cl)c3)CC2)cc1`
Output: 1.00

----------
This document collects Ki values reported for Sodium-dependent serotonin transporter (Homo sapiens, UniProt P31645).
Express your answer in nM, writing the number without its unit.

structure_string=Clc1cccc(N2CCNCC2)c1 quantity_measured=Ki reported_result=271

Input: Which measured Ki belongs to `CN(C)CCN(Cc1ccccc1)S(=O)(=O)c1ccc(I)cc1` , tested on Sodium-dependent serotonin transporter (Homo sapiens, UniProt P31645)?
Output: 30.4

----------
- study.system: Sodium-dependent serotonin transporter (Rattus norvegicus)
- Sequence (P31652 whole entry): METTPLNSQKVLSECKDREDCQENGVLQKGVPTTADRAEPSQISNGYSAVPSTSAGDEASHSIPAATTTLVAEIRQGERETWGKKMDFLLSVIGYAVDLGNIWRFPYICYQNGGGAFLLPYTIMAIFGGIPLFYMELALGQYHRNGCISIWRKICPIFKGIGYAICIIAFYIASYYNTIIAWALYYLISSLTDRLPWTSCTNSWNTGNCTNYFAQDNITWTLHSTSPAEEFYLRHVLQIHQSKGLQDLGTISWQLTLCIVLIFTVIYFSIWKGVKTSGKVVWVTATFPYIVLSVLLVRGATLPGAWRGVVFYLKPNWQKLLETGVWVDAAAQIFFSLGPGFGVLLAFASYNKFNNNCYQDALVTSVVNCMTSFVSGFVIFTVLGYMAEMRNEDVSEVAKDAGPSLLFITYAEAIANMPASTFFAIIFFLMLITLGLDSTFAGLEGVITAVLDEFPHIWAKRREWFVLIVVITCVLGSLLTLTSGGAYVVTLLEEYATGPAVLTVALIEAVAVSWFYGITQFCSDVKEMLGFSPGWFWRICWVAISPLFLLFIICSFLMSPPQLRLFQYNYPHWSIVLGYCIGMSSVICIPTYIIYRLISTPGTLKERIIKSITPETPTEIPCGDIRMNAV
- assay.notes: Displacement of [3H]citalopram from SERT in Sprague-Dawley rat whole brain membranes after 1 hr by liquid scintillation spectrometry
pKi: −log10 of the molar value.
Decide using pKi: a value greater than or equal to 7 is Yes, a smaller one is No.

Record excerpt, results attached:
compound=Cc1ccc(NC(=O)Nc2ccc(S(=O)(=O)N(CCN(C)C)Cc3ccccc3)cc2)cc1Cl category_label=No
compound=CN(C)CCN(Cc1ccccc1)S(=O)(=O)c1ccc(NC(=O)Nc2ccc3c(ccn3C)c2)cc1 category_label=Yes
compound=CN(C)CCN(Cc1ccccc1)S(=O)(=O)c1cccc(N2CCN(c3cccc(Cl)c3)CC2)c1 category_label=No
compound=CN(C)CCN(Cc1ccccc1)S(=O)(=O)c1ccc(I)cc1 category_label=Yes

Input: State whether the measured pKi reaches 7, counting equality as reaching it, for `CN(C)CCN(Cc1ccccc1)S(=O)(=O)c1ccc(N2CCN(c3cccc(Cl)c3)CC2)cc1`
Output: Yes

Input: Has Cc1cc2c(cc1Cl)N(C(=O)Nc1ccc(Oc3cccnc3C)nc1)CC2 [SB-242084] a recorded pKi greater than or equal to 7?
Output: No

Input: Test whether the compound `CN(C)CCN(Cc1ccccc1)S(=O)(=O)c1ccc(NC(=O)N2CCN(c3cccc(Cl)c3)CC2)cc1` records pKi of 7 or higher.
Output: Yes

----------
- assay.notes: Intrinsic clearance in mouse liver microsomes at 2.5 uM
- Assay type: ADME
Recorded CLH, one value per entry.
Your answer should be a plain number; it is taken to be in mL/min/g.

Here is how some compounds turned out for CLH.
compound="COc1ccc(NC(=O)Nc2ccc(OC(CCN(C)C)c3ccccc3)cc2)cc1Cl (stereo unspecified)" quantity_measured=CLH reported_result=1.25
compound="CN(C)CCC(Oc1ccc(NC(=O)Nc2ccc3c(ccn3C)c2)cc1)c1ccccc1 (stereo unspecified)" quantity_measured=CLH reported_result=3.25
compound=CN(C)CCN(Cc1ccccc1)S(=O)(=O)c1ccc(I)cc1 quantity_measured=CLH reported_result=14.19
compound=CN(C)CCN(Cc1ccccc1)S(=O)(=O)c1ccc(NC(=O)Nc2ccc3c(ccn3C)c2)cc1 quantity_measured=CLH reported_result=1.07
compound="Cc1cc2c(cc1Cl)N(C(=O)Nc1ccc(OC(CCN(C)C)c3ccccc3)cc1)CC2 (stereo unspecified)" quantity_measured=CLH reported_result=0.9

Note: attention shifts to another entry.
Input: What measured CLH goes with `CN(C)CCN(Cc1ccccc1)S(=O)(=O)c1ccc(N2CCN(c3cccc(Cl)c3)CC2)cc1` ?
Output: 1.57
